assayed_target: EGFR(D770_N771insSVD) expressing Ba/F3 stable cell line (Homo sapiens, UniProt P00533, DUP768-770, cells depend on it)
Sequence (P00533 with tags, fused parts or gaps DUP768-770): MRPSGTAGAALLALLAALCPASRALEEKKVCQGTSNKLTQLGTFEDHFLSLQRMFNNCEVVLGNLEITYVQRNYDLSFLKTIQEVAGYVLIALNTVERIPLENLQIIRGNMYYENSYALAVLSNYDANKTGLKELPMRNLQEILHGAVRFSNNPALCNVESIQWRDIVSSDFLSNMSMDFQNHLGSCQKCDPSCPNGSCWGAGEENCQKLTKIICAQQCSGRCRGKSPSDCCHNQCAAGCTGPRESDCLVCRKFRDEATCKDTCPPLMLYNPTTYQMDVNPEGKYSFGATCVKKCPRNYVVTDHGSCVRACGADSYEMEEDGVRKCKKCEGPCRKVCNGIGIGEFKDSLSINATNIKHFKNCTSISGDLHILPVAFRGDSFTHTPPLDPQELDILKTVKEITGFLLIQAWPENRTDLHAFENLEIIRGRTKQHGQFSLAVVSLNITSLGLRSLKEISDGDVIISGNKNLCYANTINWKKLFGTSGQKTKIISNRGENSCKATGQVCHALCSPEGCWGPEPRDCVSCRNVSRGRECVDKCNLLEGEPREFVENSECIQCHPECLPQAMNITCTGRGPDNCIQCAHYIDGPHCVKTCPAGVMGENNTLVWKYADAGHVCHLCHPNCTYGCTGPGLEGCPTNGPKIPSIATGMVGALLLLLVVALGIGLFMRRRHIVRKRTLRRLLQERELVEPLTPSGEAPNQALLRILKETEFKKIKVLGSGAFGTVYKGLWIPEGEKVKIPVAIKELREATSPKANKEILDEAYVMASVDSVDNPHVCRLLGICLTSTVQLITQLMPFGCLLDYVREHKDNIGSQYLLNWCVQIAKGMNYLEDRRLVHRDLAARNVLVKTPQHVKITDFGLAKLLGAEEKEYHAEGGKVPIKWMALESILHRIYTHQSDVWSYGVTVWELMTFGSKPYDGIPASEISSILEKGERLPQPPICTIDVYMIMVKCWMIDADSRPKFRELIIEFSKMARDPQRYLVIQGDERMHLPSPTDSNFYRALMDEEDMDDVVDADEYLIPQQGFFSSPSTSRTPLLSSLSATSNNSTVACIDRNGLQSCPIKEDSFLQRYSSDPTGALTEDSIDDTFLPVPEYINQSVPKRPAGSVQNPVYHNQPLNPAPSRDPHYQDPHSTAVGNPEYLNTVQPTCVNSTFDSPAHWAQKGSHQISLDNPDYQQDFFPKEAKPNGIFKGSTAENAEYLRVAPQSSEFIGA
assay: Cellular proliferation (Alamar Blue) assay, EGFR D770_N771insSVD Ba/F3
Format: cell-based
measurement_parameters: EGFR D770_N771insSVD Ba/F3, 72 hr, read-out: D770 IC50
Please respond with reported log10 of GI50 for every item in the list.
Plainly stated, the numbers are log10 of GI50 given in nM.

Study these solved cases before continuing.
compound_string=Cn1cc(Nc2ncc3c(n2)N(c2cccc(NC(=O)/C=C/CF)c2)C(=O)N(c2ccccc2)C3)c(Cl)n1 observed_measurement=1.70
compound_string=C=CC(=O)Nc1cccc(N2C(=O)N(c3ccccc3)Cc3cnc(Nc4cn(C)nc4Cl)nc32)c1 observed_measurement=0.85
compound_string=COc1nn(C)cc1Nc1ncc2c(n1)N(c1cccc(NC(=O)/C=C/CN(C)C)c1)C(=O)N(Cc1ccccc1)C2 observed_measurement=2.03
compound_string=C=CC(=O)Nc1cccc(N2C(=O)N(Cc3ccccc3)Cc3cnc(Nc4ccc(N5CCC(N(C)C)CC5)nc4)nc32)c1 observed_measurement=2.47
compound_string=CN(C)C/C=C/C(=O)Nc1cccc(N2C(=O)N(Cc3ccccc3)Cc3cnc(Nc4cn(CCF)nc4Cl)nc32)c1 observed_measurement=1.96
compound_string=CN(C)C/C=C/C(=O)Nc1cccc(N2C(=O)N(Cc3ccccc3)Cc3cnc(Nc4ccc5c(ccn5C)c4)nc32)c1 observed_measurement=2.16
compound_string=Cc1csc(Nc2ncc3c(n2)N(c2cccc(NC(=O)/C=C/CN(C)C)c2)C(=O)N(Cc2ccccc2)C3)n1 observed_measurement=2.56
compound_string=C=CC(=O)Nc1cccc(N2C(=O)N(Cc3ccccc3)Cc3cnc(Nc4cn(C)nc4Cl)nc32)c1 observed_measurement=1.30
compound_string=C=CC(=O)Nc1cccc(N2C(=O)N(Cc3ccccc3)Cc3cnc(Nc4cnn(CCO)c4)nc32)c1 observed_measurement=1.62
compound_string=CN1CCN(C/C=C/C(=O)Nc2cccc(N3C(=O)N(c4ccccc4)Cc4cnc(Nc5cn(C)nc5Cl)nc43)c2)CC1 observed_measurement=3.36

Batch request: log10 of GI50 per item, same order as input.
1. C=CC(=O)Nc1cccc(N2C(=O)N(c3ccccc3)Cc3cnc(Nc4cccnc4F)nc32)c1
2. C=CC(=O)Nc1ccc(N2C(=O)N(c3ccccc3)Cc3cnc(Nc4cn(C)nc4Cl)nc32)cc1
3. C=CC(=O)Nc1ccccc1N1C(=O)N(c2ccccc2)Cc2cnc(Nc3cn(C)nc3Cl)nc21

Output:
[1.45, 2.88, 3.97]

* * *

assayed_target: EGFR(D770_N771insSVD) expressing Ba/F3 stable cell line (Homo sapiens, UniProt P00533, DUP768-770, cells depend on it)
assay: Cellular proliferation (Alamar Blue) assay, EGFR D770_N771insSVD Ba/F3
Assay type: cell-based
measurement_parameters: EGFR D770_N771insSVD Ba/F3, 72 hr, read-out: D770 IC50
Counter-ions that a name gives are not always drawn.
observed_property: log10 GI50 (log10 of the value in nM)
Plainly stated, the numbers are log10 of GI50 given in nM.

molecule="C=CC(=O)Nc1cccc(N2C(=O)N(c3ccccc3)Cc3cnc(Nc4cn(C(C)(C)C#N)nc4Cl)nc32)c1 [Compound 123, trifluoroacetate salt]" observed_measurement=2.48
molecule=C=CC(=O)Nc1cccc(N2C(=O)N(Cc3ccccc3)Cc3cnc(Nc4cn(C)nc4F)nc32)c1 observed_measurement=1.32
molecule=CN(C)C/C=C/C(=O)Nc1cccc(N2C(=O)N(Cc3ccccc3)Cc3cnc(Nc4ccc5c(c4)cc(C#N)n5C)nc32)c1 observed_measurement=2.03
molecule=CN(C)C/C=C/C(=O)Nc1cccc(N2C(=O)N(Cc3ccccc3)Cc3cnc(Nc4cn(C)nc4C(F)F)nc32)c1 observed_measurement=1.63

Batch request: log10 GI50 per item, same order as input.
1. CN(C)C/C=C/C(=O)Nc1cccc(N2C(=O)N(c3ccccc3)Cc3cnc(Nc4cn(C5CCN(C)CC5)nc4Cl)nc32)c1
2. Cc1nocc1Nc1ncc2c(n1)N(c1cccc(NC(=O)/C=C/CN(C)C)c1)C(=O)N(Cc1ccccc1)C2
3. C=CC(=O)Nc1cccc(N2C(=O)N(Cc3ccc(C)cc3C)Cc3cnc(Nc4cn(C)nc4Cl)nc32)c1
4. COc1ncccc1Nc1ncc2c(n1)N(c1cccc(NC(=O)/C=C/CN(C)C)c1)C(=O)N(Cc1ccccc1)C2 [Compound 103, trifluoroacetate salt]
5. CN(C)C/C=C/C(=O)Nc1cccc(N2C(=O)N(Cc3ccccc3)Cc3cnc(Nc4ccc(N5CCOCC5)nc4)nc32)c1

Output:
3.05
3.38
2.54
2.35
2.53

Batch request: log10 GI50 per item, same order as input.
1. Cc1nn(C)cc1Nc1ncc2c(n1)N(c1cccc(NC(=O)/C=C/CN(C)C)c1)C(=O)N(Cc1ccccc1)C2
2. Cn1cc(Nc2ncc3c(n2)N(c2cccc(NC(=O)/C=C/CN4CCCCC4)c2)C(=O)N(c2ccccc2)C3)c(Cl)n1

Output:
1: 2.48; 2: 2.11

* * *

assayed_target: EGFR(D770_N771insSVD) expressing Ba/F3 stable cell line (Homo sapiens, UniProt P00533, DUP768-770, cells depend on it)
assay: Cellular proliferation (Alamar Blue) assay, EGFR D770_N771insSVD Ba/F3
Type: cell-based
measurement_parameters: EGFR D770_N771insSVD Ba/F3, 72 hr, read-out: D770 IC50
# True = GI50 below 0.3 µM (exclusive); False = GI50 at/above 0.3 µM

Look over these answered cases.
compound_string=Cn1cc(Nc2ncc3c(n2)N(c2cccc(NC(=O)/C=C/CN4CCCCC4)c2)C(=O)N(Cc2ccccc2)C3)c(F)n1 answer_label=True
compound_string=C/C=C/C(=O)Nc1cccc(N2C(=O)N(Cc3ccccc3)Cc3cnc(Nc4cn(C)nc4F)nc32)c1 answer_label=False
compound_string=C=CC(=O)N1CC[C@H](N2C(=O)N(c3ccccc3)Cc3cnc(Nc4cn(C)nc4Cl)nc32)C1 answer_label=False
compound_string=CN(C)C/C=C/C(=O)Nc1cccc(N2C(=O)N(Cc3ccccc3)Cc3cnc(Nc4cn(C)nc4Cl)nc32)c1 answer_label=True
compound_string=CN(C)C/C=C/C(=O)Nc1cccc(N2C(=O)N(c3ccccc3)Cc3cnc(Nc4cn(C)nc4Cl)nc32)c1 answer_label=True

Input: Is it true that GI50 reported for Cc1ccc(CN2Cc3cnc(Nc4cn(C)nc4Cl)nc3N(c3cccc(NC(=O)/C=C/CN(C)C)c3)C2=O)c(C)c1 is less than 0.3 µM?
Output: False

Input: Is it true that GI50 reported for COC/C=C/C(=O)Nc1cccc(N2C(=O)N(Cc3ccccc3)Cc3cnc(Nc4cn(C)nc4Cl)nc32)c1 is less than 0.3 µM?
Output: False

* * *

assayed_target: EGFR (A767_dupASV) expressing Ba/F3 stable cell line (Homo sapiens, UniProt P00533, DUP767-769, cells depend on it)
Sequence (P00533 with tags, fused parts or gaps DUP767-769): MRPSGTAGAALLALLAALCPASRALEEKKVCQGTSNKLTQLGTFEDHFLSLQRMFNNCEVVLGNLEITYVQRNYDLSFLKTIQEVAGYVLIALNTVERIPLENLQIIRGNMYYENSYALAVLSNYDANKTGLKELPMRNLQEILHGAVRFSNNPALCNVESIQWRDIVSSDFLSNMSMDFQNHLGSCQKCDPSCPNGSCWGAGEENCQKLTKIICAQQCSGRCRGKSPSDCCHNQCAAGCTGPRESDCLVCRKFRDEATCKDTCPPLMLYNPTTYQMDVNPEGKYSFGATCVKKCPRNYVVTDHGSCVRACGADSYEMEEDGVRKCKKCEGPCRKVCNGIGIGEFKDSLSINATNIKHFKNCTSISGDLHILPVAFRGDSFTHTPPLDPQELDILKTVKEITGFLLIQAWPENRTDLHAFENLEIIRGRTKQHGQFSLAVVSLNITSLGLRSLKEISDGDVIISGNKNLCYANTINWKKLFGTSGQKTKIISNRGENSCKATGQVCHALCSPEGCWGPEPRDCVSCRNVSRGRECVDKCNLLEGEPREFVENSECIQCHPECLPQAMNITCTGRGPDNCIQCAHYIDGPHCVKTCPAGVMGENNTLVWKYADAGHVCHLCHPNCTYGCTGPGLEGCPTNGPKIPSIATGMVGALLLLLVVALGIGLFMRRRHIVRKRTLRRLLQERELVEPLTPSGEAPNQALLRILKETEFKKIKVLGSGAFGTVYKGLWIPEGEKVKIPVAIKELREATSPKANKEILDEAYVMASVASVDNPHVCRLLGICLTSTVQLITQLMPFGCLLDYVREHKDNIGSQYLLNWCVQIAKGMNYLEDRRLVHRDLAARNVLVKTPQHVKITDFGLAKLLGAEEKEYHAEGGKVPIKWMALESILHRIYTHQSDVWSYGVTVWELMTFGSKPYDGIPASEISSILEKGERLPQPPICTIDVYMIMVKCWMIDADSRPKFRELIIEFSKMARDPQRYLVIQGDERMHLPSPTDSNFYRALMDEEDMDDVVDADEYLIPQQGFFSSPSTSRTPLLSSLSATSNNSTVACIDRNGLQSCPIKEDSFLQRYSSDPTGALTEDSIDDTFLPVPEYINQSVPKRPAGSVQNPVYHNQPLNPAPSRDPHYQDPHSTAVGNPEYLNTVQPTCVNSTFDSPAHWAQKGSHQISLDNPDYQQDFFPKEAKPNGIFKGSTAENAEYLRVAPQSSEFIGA
assay: Cellular proliferation (Alamar Blue) assay, EGFR A767_dupASV Ba/F3
Type: cell-based
measurement_parameters: EGFR A767_dupASV Ba/F3, 72 hr, read-out: A767 IC50
Where a name gives a salt, the structure may show the parent alone.
Please respond with reported GI50 for every item in the list.
Answers are plain numbers, in µM.

compound="CN(C)C/C=C/C(=O)Nc1cccc(N2C(=O)N(Cc3ccc(F)cc3)Cc3cnc(Nc4cn(C)nc4Cl)nc32)c1 [Compound 57]" unit_of_measure=µM observed_measurement=0.115
compound="C=CC(=O)Nc1ccc(F)c(N2C(=O)N(c3ccccc3)Cc3cnc(Nc4cn(C)nc4Cl)nc32)c1 [Compound 128, trifluoroacetate salt]" unit_of_measure=µM observed_measurement=0.011
compound="CN(C)C/C=C/C(=O)Nc1cccc(N2C(=O)N(Cc3ccccc3)Cc3cnc(Nc4cn(C)nc4C(F)(F)F)nc32)c1 [Compound 95]" unit_of_measure=µM observed_measurement=0.106
compound="CN(C)C/C=C/C(=O)Nc1cccc(N2C(=O)N(c3ccccc3)Cc3cnc(Nc4cccnc4F)nc32)c1 [Compound 114]" unit_of_measure=µM observed_measurement=0.164
compound="C=CC(=O)NC1CCCC(N2C(=O)N(Cc3ccccc3)Cc3cnc(Nc4cnn(C)c4)nc32)C1 (centres unmarked) [Compound 24]" unit_of_measure=µM observed_measurement=0.356

Batch request: GI50 per item, same order as input.
1. C/C=C/C(=O)Nc1cccc(N2C(=O)N(Cc3ccccc3)Cc3cnc(Nc4cn(C)nc4F)nc32)c1 [Compound 87]
2. C=CC(=O)Nc1cccc(N2C(=O)N(c3ccccc3)Cc3cnc(Nc4cccc5c4CCN5C4CCN(C)CC4)nc32)c1 [Compound 118]
3. C=CC(=O)Nc1cccc(N2C(=O)N(c3ccccc3)Cc3cnc(Nc4ccc(N5CCN(C)CC5)nc4)nc32)c1 [Compound 110]
4. C=CC(=O)NC1CCCC(N2C(=O)N(Cc3ccccc3)Cc3cnc(Nc4ncc(C)s4)nc32)C1 (centres unmarked) [Compound 30]
5. COCCn1cc(Nc2ncc3c(n2)N(c2cccc(NC(=O)/C=C/CN(C)C)c2)C(=O)N(Cc2ccccc2)C3)cn1 [Compound 16]

Output:
1: 2.24; 2: 0.032; 3: 0.043; 4: 2.81; 5: 1.17

Batch request: GI50 per item, same order as input.
1. CN(C)C/C=C/C(=O)Nc1cccc(N2C(=O)N(c3ccccc3)Cc3cnc(Nc4cn(C5CCN(C)CC5)nc4Cl)nc32)c1 [Compound 106]
2. CN(C)C/C=C/C(=O)Nc1cccc(N2C(=O)N(Cc3ccccc3)Cc3cnc(Nc4cnn5c4OCCC5)nc32)c1 [Compound 97]
3. COCCn1cc(Nc2ncc3c(n2)N(c2cccc(NC(=O)/C=C/CN(C)C)c2)C(=O)N(Cc2ccccc2)C3)c(Cl)n1 [Compound 92]

Output:
0.926
2.63
0.385
